Origin of measurements: patent US8691761B2

- target.system: hSSTR5 (Homo sapiens, UniProt P35346)
- Construct: expressed in transfected cells; host or cells: CHO-K1 or CCL39 cells
- Sequence (P35346 whole entry): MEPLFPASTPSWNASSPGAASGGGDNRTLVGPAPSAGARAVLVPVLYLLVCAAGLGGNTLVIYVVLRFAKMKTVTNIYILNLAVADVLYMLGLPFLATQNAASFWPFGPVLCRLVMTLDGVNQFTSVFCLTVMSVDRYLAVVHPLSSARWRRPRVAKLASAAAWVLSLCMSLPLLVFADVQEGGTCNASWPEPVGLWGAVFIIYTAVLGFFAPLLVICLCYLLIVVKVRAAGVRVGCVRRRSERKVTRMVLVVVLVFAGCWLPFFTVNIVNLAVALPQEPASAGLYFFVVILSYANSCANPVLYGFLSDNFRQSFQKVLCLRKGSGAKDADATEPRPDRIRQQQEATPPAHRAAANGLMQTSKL
- protocol.notes: Receptor autoradiography, displacement of 125I-[Leu8,D-Trp22,Tyr25]-SRIF-28 from membrane pellet sections
- Assay type: binding
- study.conditions: Table 3; mean ± SEM when N ≧ 3; read-out: sst5 binding affinity (IC50)
Bridge positions count the residues as written; N and C are the ends. Square brackets hold non-standard residues; d marks the D form. Peptide text beside a SMILES is read from it. * marks the point of attachment. Phe(4-NHCONH2) = NC(=O)Nc1ccc(C[C@H](N)C(=O)O)cc1; X1 = NC(=O)N[C@@H](Cc1ccc(Cl)cc1)C(=O)*; 2Nal = N[C@@H](Cc1ccc2ccccc2c1)C(=O)O
Entries and their IC50
The reply should contain only the number, in nM.

molecule	property.measured	observed.result
C[C@@H](O)[C@@H]1NC(=O)[C@H](CCCCN)NC(=O)[C@@H](Cc2c[nH]c3ccccc23)NC(=O)[C@H](Cc2ccc(NC(N)=O)cc2)NC(=O)[C@H](NC(=O)[C@@H](N)Cc2ccc(Cl)cc2)CSSC[C@@H](C(=O)N[C@H](Cc2ccc(NC(N)=O)cc2)C(N)=O)NC1=O	IC50	191

Okay, next one:
input: I'd like to know its IC50. The molecule in question is C[C@@H](O)[C@@H]1NC(=O)[C@H](CCCCN)NC(=O)[C@@H](Cc2c[nH]c3ccccc23)NC(=O)[C@H](Cc2ccc(NC(N)=O)cc2)NC(=O)[C@H](NC(=O)[C@H](Cc2ccc(Cl)cc2)NC(N)=O)CSSC[C@@H](C(=O)N[C@@H](Cc2ccc3ccccc3c2)C(N)=O)NC1=O [compound 13] (X1-[dC][Phe(4-NHCONH2)][dW]KTC[2Nal]-NH2; disulfide 1-6)
output: 111
